target: T1, human CD19 (human, UniProt P15391 20-556)
T1 construct: also called B-cell surface antigen B4; B-cell antigen CD19
T1 sequence: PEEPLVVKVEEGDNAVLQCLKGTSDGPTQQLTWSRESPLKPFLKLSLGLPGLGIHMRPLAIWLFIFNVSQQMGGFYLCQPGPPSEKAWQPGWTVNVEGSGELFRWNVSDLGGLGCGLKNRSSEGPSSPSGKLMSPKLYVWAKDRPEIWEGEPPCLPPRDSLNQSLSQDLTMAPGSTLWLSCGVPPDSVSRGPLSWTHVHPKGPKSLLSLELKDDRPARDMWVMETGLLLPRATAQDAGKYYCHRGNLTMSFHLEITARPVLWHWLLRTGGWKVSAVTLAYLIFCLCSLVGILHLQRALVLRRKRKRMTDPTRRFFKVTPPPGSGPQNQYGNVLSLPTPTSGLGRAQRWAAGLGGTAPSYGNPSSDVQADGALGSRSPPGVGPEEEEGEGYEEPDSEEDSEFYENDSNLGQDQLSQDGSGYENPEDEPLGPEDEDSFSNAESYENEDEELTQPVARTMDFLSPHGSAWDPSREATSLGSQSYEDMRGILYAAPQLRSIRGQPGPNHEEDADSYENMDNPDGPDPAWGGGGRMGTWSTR
measurement protocol: binding affinity relative to the parent H1L1 mAb (Example 5); assay and format not named on the sheet
parameter: Fold change binding (fold)
Answer format: numeric, fold implied, no suffix.

// worked examples, Fold change binding included
binder: H1.196 / L1.154 (antibody, V domains shown, vs H1L1 (Kabat): VH T57P/S100cT/R100dS; VL L27cQ/S27eV/A55N/F96N; also called 4G7 H1.196_L1.154) VH: EVQLVESGGGLVKPGGSLKLSCAASGYTFTSYVMHWVRQAPGKGLEWIGYINPYNDGPKYNEKFQGRVTISSDKSISTAYMELSSLRSEDTAMYYCARGTYYYGTSVFDYWGQGTLVTVSS VL: DIVMTQSPATLSLSPGERATLSCRSSKSLQNVNGNTYLYWFQQKPGQSPQLLIYRMSNLNSGVPDRFSGSGSGTEFTLTISSLEPEDFAVYYCMQHLEYPNTFGAGTKLEIK
recorded number: 4.44

binder: H1.52 / L1.155 (antibody, V domains shown, vs H1L1 (Kabat): VH S100cT; VL L27cQ/S27eV/A55N/F96I; also called 4G7 H1.52_L1.155) VH: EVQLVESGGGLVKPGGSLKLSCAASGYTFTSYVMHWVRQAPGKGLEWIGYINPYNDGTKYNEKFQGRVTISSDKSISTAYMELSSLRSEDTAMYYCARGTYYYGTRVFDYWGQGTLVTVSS VL: DIVMTQSPATLSLSPGERATLSCRSSKSLQNVNGNTYLYWFQQKPGQSPQLLIYRMSNLNSGVPDRFSGSGSGTEFTLTISSLEPEDFAVYYCMQHLEYPITFGAGTKLEIK
recorded number: 6.16

binder: H1.147 / L1 (antibody, V domains shown, vs H1L1 (Kabat): VH D101S; also called 4G7 H1.147_L1) VH: EVQLVESGGGLVKPGGSLKLSCAASGYTFTSYVMHWVRQAPGKGLEWIGYINPYNDGTKYNEKFQGRVTISSDKSISTAYMELSSLRSEDTAMYYCARGTYYYGSRVFSYWGQGTLVTVSS VL: DIVMTQSPATLSLSPGERATLSCRSSKSLLNSNGNTYLYWFQQKPGQSPQLLIYRMSNLASGVPDRFSGSGSGTEFTLTISSLEPEDFAVYYCMQHLEYPFTFGAGTKLEIK
recorded number: 2.65

binder: H1.192 / L1.146 (antibody, V domains shown, vs H1L1 (Kabat): VH T57P/S100cT; VL S27eV/A55N/F96N; also called 4G7 H1.192_L1.146) VH: EVQLVESGGGLVKPGGSLKLSCAASGYTFTSYVMHWVRQAPGKGLEWIGYINPYNDGPKYNEKFQGRVTISSDKSISTAYMELSSLRSEDTAMYYCARGTYYYGTRVFDYWGQGTLVTVSS VL: DIVMTQSPATLSLSPGERATLSCRSSKSLLNVNGNTYLYWFQQKPGQSPQLLIYRMSNLNSGVPDRFSGSGSGTEFTLTISSLEPEDFAVYYCMQHLEYPNTFGAGTKLEIK
recorded number: 3.19

binder: H1.146 / L1 (antibody, V domains shown, vs H1L1 (Kabat): VH D101H; also called 4G7 H1.146_L1) VH: EVQLVESGGGLVKPGGSLKLSCAASGYTFTSYVMHWVRQAPGKGLEWIGYINPYNDGTKYNEKFQGRVTISSDKSISTAYMELSSLRSEDTAMYYCARGTYYYGSRVFHYWGQGTLVTVSS VL: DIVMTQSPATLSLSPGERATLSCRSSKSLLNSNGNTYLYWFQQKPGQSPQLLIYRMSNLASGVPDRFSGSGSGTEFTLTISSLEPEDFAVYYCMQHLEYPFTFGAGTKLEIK
recorded number: 2.45

Given item H1.199 / L1.146 (antibody, V domains shown, vs H1L1 (Kabat): VH T57P/K58E/S100cT; VL S27eV/A55N/F96N; also called 4G7 H1.199_L1.146) VH: EVQLVESGGGLVKPGGSLKLSCAASGYTFTSYVMHWVRQAPGKGLEWIGYINPYNDGPEYNEKFQGRVTISSDKSISTAYMELSSLRSEDTAMYYCARGTYYYGTRVFDYWGQGTLVTVSS VL: DIVMTQSPATLSLSPGERATLSCRSSKSLLNVNGNTYLYWFQQKPGQSPQLLIYRMSNLNSGVPDRFSGSGSGTEFTLTISSLEPEDFAVYYCMQHLEYPNTFGAGTKLEIK , the value recorded as its Fold change binding is 4.11

What the record says about H1.202 / L1.160 (antibody, V domains shown, vs H1L1 (Kabat): VH D55E/S100cT; VL L27cQ/S27eV/G29A/A55N/F96I; also called 4G7 H1.202_L1.160) VH: EVQLVESGGGLVKPGGSLKLSCAASGYTFTSYVMHWVRQAPGKGLEWIGYINPYNEGTKYNEKFQGRVTISSDKSISTAYMELSSLRSEDTAMYYCARGTYYYGTRVFDYWGQGTLVTVSS VL: DIVMTQSPATLSLSPGERATLSCRSSKSLQNVNANTYLYWFQQKPGQSPQLLIYRMSNLNSGVPDRFSGSGSGTEFTLTISSLEPEDFAVYYCMQHLEYPITFGAGTKLEIK : Fold change binding is 3.96

Entry H1.52 / L1.145 (antibody, V domains shown, vs H1L1 (Kabat): VH S100cT; VL L27cQ/F96I; also called 4G7 H1.52_L1.145) VH: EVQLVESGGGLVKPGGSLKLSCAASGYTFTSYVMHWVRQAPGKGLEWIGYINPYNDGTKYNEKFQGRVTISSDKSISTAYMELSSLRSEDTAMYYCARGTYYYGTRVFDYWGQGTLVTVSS VL: DIVMTQSPATLSLSPGERATLSCRSSKSLQNSNGNTYLYWFQQKPGQSPQLLIYRMSNLASGVPDRFSGSGSGTEFTLTISSLEPEDFAVYYCMQHLEYPITFGAGTKLEIK , Fold change binding reported as 6.41

Lab note: measured Fold change binding of H1.192 / L1.148 (antibody, V domains shown, vs H1L1 (Kabat): VH T57P/S100cT; VL L27cQ/A55N/F96N; also called 4G7 H1.192_L1.148) VH: EVQLVESGGGLVKPGGSLKLSCAASGYTFTSYVMHWVRQAPGKGLEWIGYINPYNDGPKYNEKFQGRVTISSDKSISTAYMELSSLRSEDTAMYYCARGTYYYGTRVFDYWGQGTLVTVSS VL: DIVMTQSPATLSLSPGERATLSCRSSKSLQNSNGNTYLYWFQQKPGQSPQLLIYRMSNLNSGVPDRFSGSGSGTEFTLTISSLEPEDFAVYYCMQHLEYPNTFGAGTKLEIK was 4.63

Recorded result, H1.199 / L1.152 (antibody, V domains shown, vs H1L1 (Kabat): VH T57P/K58E/S100cT; VL L27cQ/S27eV/F96N; also called 4G7 H1.199_L1.152) VH: EVQLVESGGGLVKPGGSLKLSCAASGYTFTSYVMHWVRQAPGKGLEWIGYINPYNDGPEYNEKFQGRVTISSDKSISTAYMELSSLRSEDTAMYYCARGTYYYGTRVFDYWGQGTLVTVSS VL: DIVMTQSPATLSLSPGERATLSCRSSKSLQNVNGNTYLYWFQQKPGQSPQLLIYRMSNLASGVPDRFSGSGSGTEFTLTISSLEPEDFAVYYCMQHLEYPNTFGAGTKLEIK , Fold change binding: 3.55
